experiment: NCI Yeast Anticancer Drug Screen. Data for the mlh1 rad18 strain (AID 175); settings: S. cerevisiae mlh1 rad18 strain growth inhibition; at 50.0 µM; stronger effect = higher value
Compounds without any hit were thinned out: in the full panel of roughly 79,000, 15% have a hit. Active and inactive are the calls of the source. Rule as the data show it: active = growth inhibition above about 70%; inactive = the rest.
growth inhibition values, listed per item

Worked examples, 6 compounds total:
CCCN(CCCC(NC(C)=O)C(=O)NCc1ccccc1)C(=O)N(C)N=O (configuration not stated)	-11.9% (inactive)
CC1(C)OC(=O)C=C(O)O1.CC1(C)OC(=O)C=C(O)O1.CCO.Oc1ccc2c(c1)CCC2.[Ti]	6.75% (inactive)
CCOC(=O)C1CCCCN1C(=O)OCc1ccccc1 (configuration not stated)	-42.3% (inactive)
CCCCCCCCC/C=C\C(=O)O	37% (inactive)
Nc1ccc(S(=O)(=O)OCCOc2ccccc2)cc1	-7.3% (inactive)
CCCCCO[Si](OCCCCC)(OCCCCC)OCCCCC	10.9% (inactive)

Now take the following compound into account.
So what's the measured growth inhibition for this one? `Cc1ccc([N+](=O)[O-])cc1NC(=O)NCCCl` -9.05% (inactive)
